- assay info: antimalarial activity against Dd2 strain (AID 2302);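 note: 0% = DMSO untreated growth and 100% = chloroquine plus artemisinin killed control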
- condition label: P. falciparum Dd2 in RBCs, LDH growth readout, 72 h; at 2 µM; hits give high values

smiles data: COc1ccc2nccc(NN=Cc3cccnc3)c2c1
growth inhibition, %: 84
//
smiles data: c1cc(CN2CCCCC2)cc(-c2cccc(-c3nc4ccccc4[nH]3)c2)c1
growth inhibition, %: 37
//
smiles data: OCC1CCN(Cc2ccc(-c3ccc(-c4nc5ccc(F)cc5[nH]4)cc3)cc2)CC1
growth inhibition, %: 95

---

- system tested: L-lactate dehydrogenase (Plasmodium falciparum (isolate CDC / Honduras)) (UniProt Q27743)
- Sequence (Q27743 whole entry, looked up): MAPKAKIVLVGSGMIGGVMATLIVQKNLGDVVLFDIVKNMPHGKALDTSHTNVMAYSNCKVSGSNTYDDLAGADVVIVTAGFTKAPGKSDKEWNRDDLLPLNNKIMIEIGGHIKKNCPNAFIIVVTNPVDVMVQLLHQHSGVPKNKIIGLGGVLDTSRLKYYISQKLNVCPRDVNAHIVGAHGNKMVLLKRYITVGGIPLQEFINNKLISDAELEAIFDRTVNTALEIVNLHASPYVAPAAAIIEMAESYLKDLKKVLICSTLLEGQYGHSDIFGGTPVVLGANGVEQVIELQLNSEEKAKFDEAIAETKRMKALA
- assay info: PfLDH activity inhibition – cell lysate, 3D7 strain, counter-screen for P. falciparum growth inhibition project (AID 2304);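 note: 0% = vehicle and 100% = reference inhibitor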
- condition label: P. falciparum 3D7 crude extract, LDH APAD/NBT absorbance; at 2 µM; hits give high values

compound: NCc1ccc(CNCc2cccc(-c3cccc(-c4nc5ccc(F)cc5[nH]4)c3)c2)cc1
measure unit: %
inhibition: -2
//
compound: C[C@@H]1CC[C@H](NC(=O)[C@H](CC2CCCC2)NC(=O)N2CCNCC2)C(=O)CN1S(=O)(=O)c1ccccn1
measure unit: %
inhibition: -2
//
compound: C[C@H](Cc1ccc(OCCCCCOc2ccc(C[C@@H](C)NC[C@H](O)c3cccc(Cl)c3)cc2)cc1)NC[C@H](O)c1cccc(Cl)c1
measure unit: %
inhibition: -1
//
compound: Cc1[nH]c2ccccc2c1C(=O)CSc1nn(-c2ccccc2)c(=S)s1
measure unit: %
inhibition: -1
//
compound: CCCC(=O)Nc1ccc(Cl)c(NC(=O)COc2cc(C)ccc2C(C)C)c1
measure unit: %
inhibition: 0
//
compound: Nc1ccc(-c2ccc(NC(=O)Nc3ccccc3)cc2)cn1
measure unit: %
inhibition: -1
//
compound: CC(=O)Nc1ccc(OCCN(CC(C)C)c2ccc(C(F)(F)F)c(C#N)c2)c(Cl)c1
measure unit: %
inhibition: 2
//
compound: Cc1cccc2[nH]c(-c3ccc(-c4ccc(CNCC(C)C)cc4)cc3)nc12
measure unit: %
inhibition: -1
//
compound: CC(C)c1ncc(-c2ccncc2)c(C2CCC(CNC(=O)c3cccnc3)CC2)n1 (centres undefined)
measure unit: %
inhibition: 1

---

- assay info: human hepatoma cell viability loss – ATP luminescence, cytotoxicity control for P. falciparum antimalarial project, primary screen (AID 2303);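 note: 0% = DMSO wells and 100% = digitonin-killed cells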
- condition label: HepG2 viability, 24-48 h, at 10 µM, hits give high values
Item-by-item account of inhibition

molecule: O=C(Nc1ccccc1F)NC1CCN(c2ccnc(Nc3ccc(F)cc3)n2)CC1
measure unit: %
inhibition: 13
//
molecule: NC1CCN(Cc2cccc(-c3ccc(-c4nc5ccccc5[nH]4)cc3)c2)C1 (configuration not stated)
measure unit: %
inhibition: 24
//
molecule: CCc1ccc(CN2CCC(NC(=O)c3ccc(-c4ccc(N(C)C)cc4)s3)CC2)cc1
measure unit: %
inhibition: 52
//
molecule: OC(CNc1ccnc(Nc2cccc(OCCCN3CCOCC3)c2)n1)c1ccccc1 (configuration not stated)
measure unit: %
inhibition: 48
//
molecule: O=C(/C=C/c1ccc(Cl)c(Cl)c1)NCCCCCN1CCC(NC(=O)Nc2cc(F)ccc2F)CC1
measure unit: %
inhibition: 78
//
molecule: COc1ccc2c(c1)CC(CNC[C@H](O)c1cccc(Cl)c1)CC2 (some centres not stated)
measure unit: %
inhibition: 1
//
molecule: Cc1ccc(F)c(OC2CCN(c3ccc(C(=O)NC4CC4)cn3)CC2)c1
measure unit: %
inhibition: 10
//
molecule: Cc1cc(N[C@@H](Cc2ccccc2)C(=O)NCc2cccc(F)c2)nc(NCCc2cccs2)n1
measure unit: %
inhibition: 9
//
molecule: CCOC(=O)C(C#N)NC(=O)C=Cc1ccccc1 (configuration not stated)
measure unit: %
inhibition: -7
//
molecule: C=CCn1c(Sc2ccc(C#N)c([N+](=O)[O-])c2)nnc1-c1cccc(Cl)c1
measure unit: %
inhibition: 41
//
molecule: C[C@H](NC(=O)[C@H](Cc1ccccc1)NC(=O)OC(C)(C)C)C(=O)N[C@@H](CC1CCCCC1)C(O)CN (some centres not stated)
measure unit: %
inhibition: -4
//
molecule: COc1cccc(C(=O)OC2=C3CCC(=O)C3(C)CCC2=O)c1 (configuration not stated)
measure unit: %
inhibition: 37
//
molecule: COc1ccc(Cc2c(C)nc3nc(N)nc(N)c3c2C)cc1OC
measure unit: %
inhibition: 66
//
molecule: OCc1ccc(-c2cncc(Nc3ccc(F)c(Cl)c3)c2)cc1
measure unit: %
inhibition: 2
//
molecule: Fc1ccc(Nc2ccnc3cc(I)ccc23)c(Cl)c1
measure unit: %
inhibition: 35
//
molecule: O=C(Nc1cccc(-c2ccc(-c3nc4ccc(C(F)(F)F)cc4[nH]3)s2)c1)c1cccnc1
measure unit: %
inhibition: 74
//
molecule: CCN(CC)CCN(Cc1ccc(-c2ccc(C(F)(F)F)cc2)cc1)C(=O)Cn1c(CCc2cccc(F)c2F)nc(=O)c2ccc(F)cc21
measure unit: %
inhibition: 14
//
molecule: CSc1nccc(-c2ccc3ccnc(N)c3c2)n1
measure unit: %
inhibition: 30
//
molecule: CCOc1cc(C(=O)Nc2ccc3nc(N4CCN(C)CC4)cc(C)c3c2)cc(OCC)c1OCC
measure unit: %
inhibition: 14
//
molecule: Cc1ccc(O)cc1Nc1c(C(N)=O)cnc2ccc(-c3cncs3)cc12
measure unit: %
inhibition: 21
//
molecule: CCn1c(Cc2ccccc2)nnc1Sc1ccc([N+](=O)[O-])c(C#N)c1
measure unit: %
inhibition: 8
//
molecule: COc1ccc(-c2cnc3ccc(NCc4ccc(F)cc4)nn23)cc1OC
measure unit: %
inhibition: 35
//
molecule: O=C1Nc2cccc3c2C1(CCCCN1CCC(c2c[nH]c4cc(C(F)(F)F)ccc24)CC1)CCC3 (configuration not stated)
measure unit: %
inhibition: 99
//
molecule: CCCCCN1CCCC(NS(=O)(=O)c2ccc(C(=O)Nc3ccc(C(F)(F)F)cc3)cc2)C1 (configuration not stated)
measure unit: %
inhibition: 41
//
molecule: CC(C)C[C@H](Nc1ccnc(NCC2CCCCC2)n1)C(=O)NCCc1ccccc1
measure unit: %
inhibition: 10
//
molecule: COc1cccc(C(=O)NCCc2cccc(Cl)c2)c1OCc1ccccc1
measure unit: %
inhibition: -1
//
molecule: Cc1cccc(Nc2nccc(NCC(O)c3cccc(C(F)(F)F)c3)n2)c1 (configuration not stated)
measure unit: %
inhibition: 25
